Task for the reader: assign each of the following molecules its reported TGI.
- System: HCT-15 colon
- TEST_SUMMARY: NCI tumour cell line growth inhibition, 48 h

>>> value_measured("O=c1c2cc(F)ccc2sc2c(Nc3ccncc3)nc3ccccc3c12")
"3.32 µM"
>>> value_measured("O=S1(=O)OCCOS(=O)(=O)C1(Br)Cc1ccccc1")
"> 100 µM"
>>> value_measured("O=C1Nc2ccccc2/C1=C\\c1c(Cl)nc2sccn12")
"8.46 µM"
>>> value_measured("[N-]=[N+]=Nc1c(Cc2ccccc2)c(=O)oc2ccccc12")
"> 100 µM"
>>> value_measured("CCn1c(=O)c(Oc2ccc(F)cc2F)cc2cnc(NC3CCOCC3)nc21")
"> 25 µM"
>>> value_measured("Cc1[nH]c(=O)[nH]c(=S)c1C(=O)NC1C2CCCCC2NC2CCCCC21 (stereo unspecified)")
"25.9 µM"
>>> value_measured("CCO/C=N/C1=C(C#N)C(c2ccc(OC)cc2)c2sc3c(F)cccc3c2O1 (stereo unspecified)")
"26.7 µM"
>>> value_measured("c1ccc2c(c1)SC1=C(SC(=C3SC4=C(S3)Sc3ccccc3S4)S1)S2")
"> 100 µM"

Give one value of TGI per listed molecule.
1. OC(c1ccoc1)c1cc2ccccc2s1 (stereo unspecified)
2. c1ccc2cc(C[n+]3ccn(CCCCCCCCCCCCn4cc[n+](Cc5ccc6ccccc6c5)c4)c3)ccc2c1
3. C=CCN1CCN([C@H](c2ccc(C(=O)N(CC)CC)cc2)c2cccc(OC)c2)CC1

Reply text:
1. > 10 µM
2. 9.15 µM
3. > 25 µM

----------
Task for the reader: assign each of the following compounds its reported TGI.
- Tested on: OVCAR-5 ovarian
- TEST_SUMMARY: NCI tumour cell line growth inhibition, 48 h

The examples below pair each entry with its known result.
>>> value_measured("Clc1ccc(OCc2nn3c(CCCCc4nnc5sc(COc6ccc(Cl)cc6Cl)nn45)nnc3s2)c(Cl)c1")
"> 100 µM"
>>> value_measured("Cc1ccc(-n2c(=O)c3nn4c(=O)n(-c5ccc(C)cc5)c(=O)c4nn3c2=O)cc1")
"> 100 µM"

Inquiry: Provide TGI, system OVCAR-5 ovarian, entry `O=C1Nc2ccccc2/C1=C\c1c(Cl)nc2sccn12`
Reply text: 9.39 µM

----------
Task for the reader: assign each of the following compounds its reported TGI.
- Tested on: XF 498 CNS
- TEST_SUMMARY: NCI tumour cell line growth inhibition, 48 h
One number for each entry, in µM.

The examples below pair each entry with its known result.
>>> value_measured("COC1=CC(=Nc2c(Cl)cc(Cl)cc2OC(=O)c2ccc([N+](=O)[O-])cc2)C=C(OC)C1=O")
21.5
>>> value_measured("O/N=C1/C(=C/c2ccc(Cl)c(Cl)c2)CCCC1C(NO)c1ccc(Cl)c(Cl)c1 (stereo not drawn)")
33.9
>>> value_measured("O=C(CC1(O)C(=O)Nc2c(Cl)ccc(Cl)c21)c1ccco1 (stereo not drawn)")
24.2
>>> value_measured("CNCC(=O)Nc1ccc2c(c1)C(=O)c1ccc(NC(=O)CNC)cc1C2=O")
8.25

Now for another entry.
Inquiry: Please supply the value of reported TGI for the item COC1/C=C\C=C(/C)C(=O)NC2=CC(=O)C(N)=C(CC(C)CC(OC)C(O)C(C)C=C(C)C1OC(N)=O)C2=O (stereo not drawn)
Reply text: 24.8

----------
- System: HL-60(TB) leukemia
- TEST_SUMMARY: NCI tumour cell line growth inhibition, 48 h
PROPERTY_MEASURED: TGI (µM)
Numbers only, in µM.

The examples below pair each entry with its known result.
>>> value_measured("CO[C@@H]1C[C@H](OC(N)=O)[C@@H]2C=C[C@@H]3/C=C(C)/C=C/[C@@H](C)[C@H]([C@H](C)[C@H](O)[C@@H](C)NC(C)=O)OC(=O)/C=C/C=C(C)\\C=C\\[C@]3(C)[C@@H]2C1")
3.32
>>> value_measured("CCO/C=N/C1=C(C#N)C(c2ccc(OC)cc2)c2sc3c(F)cccc3c2O1 (stereo not drawn)")
5.5
>>> value_measured("CN(C)CCNc1ccc2nnn3c4ccccc4c(=O)c1c23")
15.7

Now for another entry.
Inquiry: Please supply the value of reported TGI for the item `CC(=O)O[C@H]1C(=O)[C@@]2(C)[C@H]([C@H](OC(=O)c3ccccc3)[C@]3(O)C[C@H](OC(=O)[C@H](O)[C@@H](NC(=O)c4ccccc4)c4ccccc4C)C(C)=C1C3(C)C)[C@]1(OC(C)=O)CO[C@@H]1C[C@@H]2O`
Reply text: 0.228

----------
- Tested on: HCT-15 colon
- TEST_SUMMARY: NCI tumour cell line growth inhibition, 48 h; in the data active means GI50 below about 0.43 µM; inactive means the rest
Thanks in advance; please answer with one of these: active, inactive

Solved cases below.
>>> qualitative_label("CC(C)=[CH][Sb]([Br])([CH]=C(C)C)([CH]=C(C)C)[c]1ccccc1")
"inactive"
>>> qualitative_label("C=C1C(=O)O[C@H]2[C@H]1CC/C(COC(=O)/C=C/C(=O)NCc1ccc(Cn3c(=O)sn(-c4ccccc4)c3=O)cc1)=C\\CC[C@@]1(C)O[C@@H]21")
"inactive"
>>> qualitative_label("CCOC(=O)N1C/C(=C/c2ccc(Cl)cc2)C(=O)/C(=C/c2ccc(Cl)cc2)C1")
"inactive"
>>> qualitative_label("COc1cc(-c2ccc(-c3ccc(C(=N)N)cc3)s2)cc(OC)c1OC")
"inactive"
>>> qualitative_label("CCCCCCCCCCS(=O)CC(CO)NC(=O)/C=C/c1c(C)[nH]c(=O)[nH]c1=O (centres undefined)")
"inactive"

Inquiry: Which result was noted for this molecule in the test: `COc1cccc(/C=N/[N-]C(=O)c2ccncc2)c1[O-].[Ni+2].[OH3+]`
Reply text: inactive

Inquiry: Which result was noted for this molecule in the test: `CCn1c(=O)c(Oc2ccc(F)cc2F)cc2cnc(NC3CCOCC3)nc21`
Reply text: inactive

Inquiry: Which result was noted for this molecule in the test: `COc1ccc(CC(C)=C(c2ccc(OCCN3CCCCCC3)cc2)c2ccc(OCCN3CCCCCC3)cc2)cc1`
Reply text: active

Inquiry: Which result was noted for this molecule in the test: `CS(=O)(=O)O[C@H]1C(=O)N(c2cc3c4ccccc4ccc3c3ccccc23)[C@@H]1c1ccccc1`
Reply text: active

----------
- System: M14 melanoma
- TEST_SUMMARY: NCI tumour cell line growth inhibition, 48 h
Task for the reader: assign each of the following compounds its reported TGI.

>>> value_measured("COc1ccc(O)c(/C=N/NC(=S)N2CCCCC2)c1")
"10.9 µM"

Give one value of TGI per listed compound.
1. [N-]=[N+]=Nc1c(Cc2ccccc2)c(=O)oc2ccccc12
2. O=C1OC(O)c2cc3c(cc21)OCO3 (stereo unspecified)
3. Oc1ccc(O)c(Cc2ccccc2)c1
4. COCOc1cc(OCOC)cc(C(=O)Oc2ccccc2)c1
5. CCCCCCCCCCCCCC(=O)OC1C(O)C(CO)OC(OC)C1NC(=O)N(CCCl)N=O (stereo unspecified)
6. O=C(Nc1nc(-c2ccc(Cl)cc2)cs1)c1cc(-c2ccc(Br)cc2)nc2ccc(Cl)cc12

Reply text:
62.3 µM
> 100 µM
73.9 µM
> 100 µM
> 100 µM
11.2 µM

Give one value of TGI per listed compound.
1. Nc1nc(-c2ccco2)cc(-c2ccco2)n1
2. CCOC(=O)C(/C=N\C(=S)Nc1c(CC)cccc1C(C)(C)C)=C(/O)c1ccccc1
3. COc1ccc2c(CCNC(C)=O)c(C(C)=O)[nH]c2c1
4. O=C1Nc2cc(Cl)ccc2C(=O)N2CCC[C@@H]12

Reply text:
["> 100 µM", "> 100 µM", "> 100 µM", "> 100 µM"]

----------
- System: SW-620 colon
- TEST_SUMMARY: NCI tumour cell line growth inhibition, 48 h
Task for the reader: assign each of the following compounds its reported TGI.

The examples below pair each entry with its known result.
>>> value_measured("N#Cc1ccccc1NC(=O)/C(=N\\Nc1ccc([N+](=O)[O-])cc1)C1C(=O)NC(=O)NC1=O")
"> 100 µM"
>>> value_measured("CCOCCOC(=O)C1CCC(=O)N1CN(C(C)=O)c1cc(OC)ccc1OC (stereo not given)")
"> 100 µM"
>>> value_measured("CC1(CO)COC(C)(C)OC1")
"> 100 µM"
>>> value_measured("O=[N+]([O-])c1ccc(C2=Nn3c(nnc3-c3ccccc3)SC2)o1")
"40.5 µM"
>>> value_measured("CN(CCCCCl)P(=O)(OCC1=CC(=O)c2ccccc2C1=O)OC[C@H]1O[C@@H](n2cc(F)c(=O)[nH]c2=O)C[C@@H]1O (stereo not given in full)")
"23.1 µM"
>>> value_measured("Cc1nc2ccccn2c1N=Nc1ccc(C(=O)NN)cc1")
"> 100 µM"
>>> value_measured("CCC(=O)c1cc(C(=O)C(=S)SC)cc(C(=O)C(=S)SC)c1")
"> 100 µM"
>>> value_measured("O=C([O-])c1cc(I)cc(I)c1[OH2+].O=C([O-])c1cc(I)cc(I)c1[OH2+].[Mn+2]")
"> 100 µM"

Give one value of TGI per listed compound.
1. CC(=O)Oc1c(-c2ccccc2)oc2ccccc12
2. COc1cc2ccnc(C=O)c2cc1OC

Reply text:
1. 11.8 µM
2. > 100 µM
